B1: tRNA (parent)
chain: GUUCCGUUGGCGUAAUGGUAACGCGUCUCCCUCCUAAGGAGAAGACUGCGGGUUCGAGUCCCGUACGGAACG

- Variants of: B1
- procedure-details: yeast fitness, log relative to wild type (ln ratio); higher = fitter; tRNA-Arg(CCU), competitive growth, 37 C, 1 M NaCl
yeast fitness (ln) overview
experimental-readout: yeast fitness (ln)

| sequence-entry | numeric-readout |
| --- | --- |
| GUUCCAUUGGCGUAAUGGUAACGCGUUUCCCUCCUAAGGAGACGAUUGCGGGUUCGAGUCCCGUACGGAACG [G6A C27U A43C C46U] | -0.084 |
| AGUCCGUUGGCGUAAUGGUAACGCGUCUCCCUCCUAAGGAGAAGAUUGCGGGUUCGAGUCCCGUAAGGAGUG [G1A U2G C46U C66A A70G C71U] | -0.198 |
| GGUCCAUUGGCGUAAUGGUAACGCGUCUCCCUCCUAAGGAGACGACUGCGGGUUCGAGUCCCGUAUGGGGCG [U2G G6A A43C C66U A69G A70G] | -0.257 |
| GUUCCGUUGGCGUAAUGGUAACGCGUUUCCCUCCUAAGGAGAAGACUGCGGGUUCGAGUCCCGUAUGGGUCG [C27U C66U A69G A70U] | -0.143 |
| GCUCCAUUGGCGUAAUGGUAACGCGUCUCCCUCCUAAGGAGACGAUUGCGGGUUCGAGUCCCGUAAGGAUUG [U2C G6A A43C C46U C66A A70U C71U] | -0.0318 |
| GCUCCUUUGGCGUAAUGGUAACGCGUCUCCCUCCUAAGGAGACGAUUGCGGGUUCGAGUCCCGUACGGAAUG [U2C G6U A43C C46U C71U] | -0.125 |
| AGUCCAUUGGCGUAAUGGUAACGCGUUUCCCUCCUAAGGAGAAGACUGCGGGUUCGAGUCCCGUAUGGAACG [G1A U2G G6A C27U C66U] | -0.221 |
| AGUCCAUUGGCGUAAUGGUAACGCGUUUCCCUCCUAAGGAGAAGAUUGCGGGUUCGAGUCCCGUACGGGUCG [G1A U2G G6A C27U C46U A69G A70U] | -0.233 |
| GGUCCUUUGGCGUAAUGGUAACGCGUCUCCCUCCUAAGGAGACGACUGCGGGUUCGAGUCCCGUAUGGAGCG [U2G G6U A43C C66U A70G] | -0.338 |
| GUUCCAUUGGCGUAAUGGUAACGCGUCUCCCUCCUAAGGAGACGACUGCGGGUUCGAGUCCCGUACGGGUUG [G6A A43C A69G A70U C71U] | -0.429 |
| GGUCCAUUGGCGUAAUGGUAACGCGUCUCCCUCCUAAGGAGAAGAUUGCGGGUUCGAGUCCCGUACGGAUCG [U2G G6A C46U A70U] | 0.00257 |
| AUUCCAUUGGCGUAAUGGUAACGCGUCUCCCUCCUAAGGAGAAGACUGCGGGUUCGAGUCCCGUAUGGAUCG [G1A G6A C66U A70U] | -0.0527 |
| AGUCCGUUGGCGUAAUGGUAACGCGUCUCCCUCCUAAGGAGAAGAUUGCGGGUUCGAGUCCCGUAUGGGUCG [G1A U2G C46U C66U A69G A70U] | -0.128 |
| AGUCCUUUGGCGUAAUGGUAACGCGUUUCCCUCCUAAGGAGAAGACUGCGGGUUCGAGUCCCGUAUGGAGUG [G1A U2G G6U C27U C66U A70G C71U] | -0.325 |
| GCUCCAUUGGCGUAAUGGUAACGCGUUUCCCUCCUAAGGAGACGAUUGCGGGUUCGAGUCCCGUAUGGGGUG [U2C G6A C27U A43C C46U C66U A69G A70G C71U] | -0.0764 |
| GUUCCUUUGGCGUAAUGGUAACGCGUCUCCCUCCUAAGGAGAAGAUUGCGGGUUCGAGUCCCGUAUGGGACG [G6U C46U C66U A69G] | -0.376 |
| GCUCCGUUGGCGUAAUGGUAACGCGUCUCCCUCCUAAGGAGAAGAUUGCGGGUUCGAGUCCCGUACGGAGCG [U2C C46U A70G] | 0.000328 |
| GUUCCGUUGGCGUAAUGGUAACGCGUUUCCCUCCUAAGGAGACGACUGCGGGUUCGAGUCCCGUACGGAGCG [C27U A43C A70G] | -0.0631 |
| AGUCCAUUGGCGUAAUGGUAACGCGUCUCCCUCCUAAGGAGAAGAUUGCGGGUUCGAGUCCCGUAUGGGGCG [G1A U2G G6A C46U C66U A69G A70G] | -0.18 |
| GUUCCAUUGGCGUAAUGGUAACGCGUCUCCCUCCUAAGGAGACGACUGCGGGUUCGAGUCCCGUAUGGAGCG [G6A A43C C66U A70G] | -0.128 |
| GGUCCGUUGGCGUAAUGGUAACGCGUUUCCCUCCUAAGGAGACGACUGCGGGUUCGAGUCCCGUACGGAACG [U2G C27U A43C] | -0.0611 |
| GGUCCUUUGGCGUAAUGGUAACGCGUCUCCCUCCUAAGGAGACGACUGCGGGUUCGAGUCCCGUACGGGUUG [U2G G6U A43C A69G A70U C71U] | -0.433 |
| AGUCCGUUGGCGUAAUGGUAACGCGUUUCCCUCCUAAGGAGACGACUGCGGGUUCGAGUCCCGUACGGGUUG [G1A U2G C27U A43C A69G A70U C71U] | -0.353 |
| ACUCCGUUGGCGUAAUGGUAACGCGUCUCCCUCCUAAGGAGAAGACUGCGGGUUCGAGUCCCGUACGGGGCG [G1A U2C A69G A70G] | -0.0537 |
| AUUCCGUUGGCGUAAUGGUAACGCGUUUCCCUCCUAAGGAGACGAUUGCGGGUUCGAGUCCCGUAAGGGUUG [G1A C27U A43C C46U C66A A69G A70U C71U] | -0.415 |
| ACUCCUUUGGCGUAAUGGUAACGCGUCUCCCUCCUAAGGAGAAGAUUGCGGGUUCGAGUCCCGUAUGGGUUG [G1A U2C G6U C46U C66U A69G A70U C71U] | -0.317 |
| GGUCCUUUGGCGUAAUGGUAACGCGUCUCCCUCCUAAGGAGAAGACUGCGGGUUCGAGUCCCGUAAGGAUUG [U2G G6U C66A A70U C71U] | -0.0189 |
| GGUCCGUUGGCGUAAUGGUAACGCGUUUCCCUCCUAAGGAGAAGACUGCGGGUUCGAGUCCCGUAUGGGAUG [U2G C27U C66U A69G C71U] | -0.282 |
| AUUCCUUUGGCGUAAUGGUAACGCGUUUCCCUCCUAAGGAGACGAUUGCGGGUUCGAGUCCCGUAAGGAAUG [G1A G6U C27U A43C C46U C66A C71U] | -0.138 |
| AUUCCGUUGGCGUAAUGGUAACGCGUCUCCCUCCUAAGGAGACGAUUGCGGGUUCGAGUCCCGUAAGGGGCG [G1A A43C C46U C66A A69G A70G] | -0.169 |
| AGUCCUUUGGCGUAAUGGUAACGCGUCUCCCUCCUAAGGAGAAGACUGCGGGUUCGAGUCCCGUACGGGAUG [G1A U2G G6U A69G C71U] | -0.224 |
| GCUCCAUUGGCGUAAUGGUAACGCGUCUCCCUCCUAAGGAGAAGAUUGCGGGUUCGAGUCCCGUACGGGUCG [U2C G6A C46U A69G A70U] | -0.084 |
| GCUCCGUUGGCGUAAUGGUAACGCGUCUCCCUCCUAAGGAGACGAUUGCGGGUUCGAGUCCCGUACGGAAUG [U2C A43C C46U C71U] | -0.193 |
| GUUCCAUUGGCGUAAUGGUAACGCGUUUCCCUCCUAAGGAGAAGAUUGCGGGUUCGAGUCCCGUAAGGAACG [G6A C27U C46U C66A] | -0.126 |
| AUUCCAUUGGCGUAAUGGUAACGCGUUUCCCUCCUAAGGAGACGACUGCGGGUUCGAGUCCCGUAUGGGGCG [G1A G6A C27U A43C C66U A69G A70G] | -0.383 |
| GUUCCUUUGGCGUAAUGGUAACGCGUUUCCCUCCUAAGGAGAAGACUGCGGGUUCGAGUCCCGUAUGGGACG [G6U C27U C66U A69G] | -0.276 |
| GGUCCUUUGGCGUAAUGGUAACGCGUUUCCCUCCUAAGGAGACGACUGCGGGUUCGAGUCCCGUACGGAGCG [U2G G6U C27U A43C A70G] | -0.232 |
| AGUCCAUUGGCGUAAUGGUAACGCGUUUCCCUCCUAAGGAGACGACUGCGGGUUCGAGUCCCGUACGGAAUG [G1A U2G G6A C27U A43C C71U] | -0.357 |
| GUUCCGUUGGCGUAAUGGUAACGCGUUUCCCUCCUAAGGAGACGAUUGCGGGUUCGAGUCCCGUAAGGAUCG [C27U A43C C46U C66A A70U] | -0.0585 |
| GGUCCAUUGGCGUAAUGGUAACGCGUUUCCCUCCUAAGGAGACGACUGCGGGUUCGAGUCCCGUACGGAAUG [U2G G6A C27U A43C C71U] | -0.197 |
| GGUCCAUUGGCGUAAUGGUAACGCGUUUCCCUCCUAAGGAGACGAUUGCGGGUUCGAGUCCCGUAUGGGGCG [U2G G6A C27U A43C C46U C66U A69G A70G] | -0.23 |
| GUUCCUUUGGCGUAAUGGUAACGCGUCUCCCUCCUAAGGAGAAGAUUGCGGGUUCGAGUCCCGUAAGGGUCG [G6U C46U C66A A69G A70U] | -0.302 |
| ACUCCAUUGGCGUAAUGGUAACGCGUUUCCCUCCUAAGGAGACGAUUGCGGGUUCGAGUCCCGUAUGGAUUG [G1A U2C G6A C27U A43C C46U C66U A70U C71U] | -0.252 |
| GGUCCGUUGGCGUAAUGGUAACGCGUCUCCCUCCUAAGGAGACGACUGCGGGUUCGAGUCCCGUACGGAACG [U2G A43C] | -0.0825 |
| GCUCCGUUGGCGUAAUGGUAACGCGUUUCCCUCCUAAGGAGACGACUGCGGGUUCGAGUCCCGUAAGGAUCG [U2C C27U A43C C66A A70U] | -0.145 |
| GCUCCUUUGGCGUAAUGGUAACGCGUUUCCCUCCUAAGGAGAAGAUUGCGGGUUCGAGUCCCGUAAGGAUUG [U2C G6U C27U C46U C66A A70U C71U] | -0.161 |
